# Tested on: HeLa cells
# assay.procedure: Cell cycle assay in HeLa cells
# Type: cell-based, human
# measurement.parameters: HeLa cells, 150 nM oligomeric compound, 24 hours, relative to untreated control (UTC = 100)
In the oligonucleotide strings, read from the 5' end, every base follows the letter of its sugar. An asterisk marks phosphorothioate; unmarked linkages are phosphodiester. Other units and linkages are bracketed, terminal groups are in braces. A string of capitals states the bases alone. e = 2'-O-(2-methoxyethyl) (MOE); [5mC] = 5-methylcytosine; d = 2'-deoxy (DNA)
Please enter YES where % cells in cell cycle phase subG1 is greater than or equal to 200%, and NO where it is lower.

| substance | qualitative.label |
| --- | --- |
| 328707 (eG*e[5mC]*eA*eA*e[5mC]*dA*dG*dG*d[5mC]*d[5mC]*dT*d[5mC]*dA*dA*dT*eA*eT*e[5mC]*eT*eT) [compound 328707] | NO |
| 328644 (eG*eA*e[5mC]*eA*eA*dG*dG*dT*dG*dG*dG*dA*dG*d[5mC]*dG*eA*eG*eT*eG*eG; antisense) [compound 328644] | NO |
| 328727 (antisense e[5mC]*eT*eG*e[5mC]*eT*d[5mC]*d[5mC]*dA*dG*dA*dG*d[5mC]*d[5mC]*d[5mC]*dG*eA*eG*eT*e[5mC]*eG) [compound 328727] | YES |
| 328421 (antisense eG*e[5mC]*eT*eT*eA*dG*d[5mC]*dT*dG*dT*dG*dT*d[5mC]*dT*dT*eA*e[5mC]*eA*eG*e[5mC]) [compound 328421] | YES |
| 341785 (antisense GGAGTGAAGACACGGAGCCAGA; all 2'-MOE, all phosphorothioate, methylation of C not given here) [compound 341785] | NO |

###

# Tested on: HeLa cells
# assay.procedure: Cell cycle assay in HeLa cells
# Type: cell-based, human
# measurement.parameters: HeLa cells, 150 nM oligomeric compound, 24 hours, relative to untreated control (UTC = 100)
In the oligonucleotide strings, read from the 5' end, every base follows the letter of its sugar. An asterisk marks phosphorothioate; unmarked linkages are phosphodiester. Other units and linkages are bracketed, terminal groups are in braces. A string of capitals states the bases alone. e = 2'-O-(2-methoxyethyl) (MOE); [5mC] = 5-methylcytosine; d = 2'-deoxy (DNA)

| substance | target.or.test.system | % cells in cell cycle phase subG1, % |
| --- | --- | --- |
| 338809 (antisense CTGCTCCAGAGCCCGAGTCG; all 2'-MOE, all phosphorothioate, methylation of C not given here) [compound 338809] | HeLa cells | 106 |
| 328759 (antisense eG*eA*eG*eG*eG*dA*dT*dT*dG*dT*dA*dT*dG*dA*dA*e[5mC]*eA*eT*e[5mC]*eT) [compound 328759] | HeLa cells | 239 |
| 327922 (antisense eT*e[5mC]*eA*eG*eT*eT*eT*eT*eG*e[5mC]*eA*eT*eG*eG*eA*eT*eT*eT*eG*e[5mC]*eA*e[5mC]*eA) [compound 327922] | HeLa cells | 131 |
| 327908 (antisense e[5mC]*eA*eA*eT*eG*e[5mC]*eA*eA*e[5mC]*eT*eA*e[5mC]*eA*eA*eT*eG*e[5mC]*eA*e[5mC]) [compound 327908] | HeLa cells | 138 |
| 328424 (antisense eA*eG*eG*eA*eA*dG*d[5mC]*dA*d[5mC]*dA*d[5mC]*dA*dT*dT*dA*eT*e[5mC]*eA*e[5mC]*eA) [compound 328424] | HeLa cells | 60 |
| 327885 (antisense eA*e[5mC]*eT*eA*e[5mC]*e[5mC]*eT*eG*e[5mC]*eA*e[5mC]*eT*eG*eT*eA*eA*eG*e[5mC]*eA*e[5mC]*eT*eT*eT*eG) [compound 327885] | HeLa cells | 151 |
| 328374 (eA*eG*e[5mC]*eT*eT*dT*dA*dG*d[5mC]*dT*dG*dG*dG*dT*d[5mC]*eA*eG*eG*eA*e[5mC]; antisense) [compound 328374] | HeLa cells | 198 |
| 328676 (eA*e[5mC]*e[5mC]*eT*e[5mC]*d[5mC]*d[5mC]*dA*dG*d[5mC]*d[5mC]*dA*dA*dT*d[5mC]*e[5mC]*eA*eT*eG*eT; antisense) [compound 328676] | HeLa cells | 139 |
| 327946 (antisense eA*eG*eG*e[5mC]*eG*eA*eA*eG*eG*eA*eT*eG*eA*e[5mC]*eA*eA*eA*eG*eG*eG*eA*eA) [compound 327946] | HeLa cells | 225 |
| 327957 (antisense e[5mC]*eA*e[5mC]*eA*eA*eG*eT*eT*e[5mC]*eG*eG*eA*eT*e[5mC]*eT*eA*e[5mC]*eG*eG*eG*eT*eT) [compound 327957] | HeLa cells | 197 |
| 328724 (antisense eG*eA*e[5mC]*eA*eT*d[5mC]*dA*dT*dG*dT*dG*dA*dT*dT*dT*eG*e[5mC]*eT*e[5mC]*eA) [compound 328724] | HeLa cells | 155 |
| 328342 (e[5mC]*eA*eA*eT*eT*dG*d[5mC]*dG*d[5mC]*dT*dA*d[5mC]*dA*dG*dA*eA*e[5mC]*eT*eG*eT) [compound 328342] | HeLa cells | 192 |
| 338713 (antisense ACCTCTCAGGAAGACGGACT; all 2'-MOE, all phosphorothioate, methylation of C not given here) [compound 338713] | HeLa cells | 93 |
| 328111 (antisense eT*e[5mC]*e[5mC]*eG*eA*eG*eT*e[5mC]*eG*eG*eA*eG*eG*eA*eG*eG*eA*eG*eG*eA*eA) [compound 328111] | HeLa cells | 62 |
| 341787 (antisense CACAGGTTAAAGGGTCTCAGGGA; all 2'-MOE, all phosphorothioate, methylation of C not given here) [compound 341787] | HeLa cells | 221 |
| 327911 (antisense eG*e[5mC]*eT*eA*e[5mC]*e[5mC]*eT*eG*e[5mC]*eA*e[5mC]*eT*eG*eT*eA*eA*eG*e[5mC]*eA*e[5mC]*eT*eT*eT*eT) [compound 327911] | HeLa cells | 158 |
| 328744 (antisense e[5mC]*eG*eG*eA*eT*d[5mC]*d[5mC]*dT*dG*dT*dT*dA*d[5mC]*d[5mC]*dT*e[5mC]*eA*e[5mC]*e[5mC]*eA) [compound 328744] | HeLa cells | 229 |
